System: Pseudomonas aeruginosa
Assay: Antibacterial activity against Pseudomonas aeruginosa ATCC 27853 after 22 hrs by resazurin based broth dilution assay
Format: functional
Conditions: ATCC 27853, 22 h
Known MIC of a selection of substances
quantity_name: MIC (µg/mL)

[[record]]
substance = "H-KLALKALKALKAALKLA-NH2"
uom = "µg/mL"
relation_operator = "="
numeric_result = 256

[[record]]
substance = "H-PLILLRLLRGQF-NH2"
uom = "µg/mL"
relation_operator = ">"
numeric_result = 256

[[record]]
substance = "H-AAVLLPVLLAAP-NH2"
uom = "µg/mL"
relation_operator = ">"
numeric_result = 256

[[record]]
substance = "H-QQRKRKIWSILAPLGTTLVKLVAGIG-NH2"
uom = "µg/mL"
relation_operator = "="
numeric_result = 64


====

System: Enterococcus faecalis
Experiment: Antibacterial activity against Enterococcus faecalis ATCC 29212 after 22 hrs by resazurin based broth dilution assay
Assay type: functional
Conditions: ATCC 29212, 22 h
Known MIC of a selection of substances
quantity_name: MIC (µg/mL)

[[record]]
substance = "H-QQRKRKIWSILAPLGTTLVKLVAGIG-NH2"
relation_operator = "="
numeric_result = 32

[[record]]
substance = "H-PLILLRLLRGQF-NH2"
relation_operator = "="
numeric_result = 64

[[record]]
substance = "H-KLALKALKALKAALKLA-NH2"
relation_operator = "="
numeric_result = 256

[[record]]
substance = "H-AAVLLPVLLAAP-NH2"
relation_operator = ">"
numeric_result = 256


====

Test system: HEK293
Test: Cytotoxicity against HEK293 cells at 2 uM after 4 hrs using fluorescein labeled compound by flow cytometric analysis
Type: cell-based
Settings: human, hek293, 4 h
quantity_name: Activity

[[record]]
substance = "H-KLALKALKALKAALKLA-NH2"
quantity_name = "Activity"
result = "Non-Toxic"

[[record]]
substance = "H-PLILLRLLRGQF-NH2"
quantity_name = "Activity"
result = "Non-Toxic"

[[record]]
substance = "H-AAVLLPVLLAAP-NH2"
quantity_name = "Activity"
result = "Non-Toxic"

[[record]]
substance = "H-QQRKRKIWSILAPLGTTLVKLVAGIG-NH2"
quantity_name = "Activity"
result = "Non-Toxic"

